Recorded values, source ChEMBL document CHEMBL2321665.

tgt: Acetyl-CoA carboxylase 2 (Homo sapiens)
Sequence (O00763 whole entry): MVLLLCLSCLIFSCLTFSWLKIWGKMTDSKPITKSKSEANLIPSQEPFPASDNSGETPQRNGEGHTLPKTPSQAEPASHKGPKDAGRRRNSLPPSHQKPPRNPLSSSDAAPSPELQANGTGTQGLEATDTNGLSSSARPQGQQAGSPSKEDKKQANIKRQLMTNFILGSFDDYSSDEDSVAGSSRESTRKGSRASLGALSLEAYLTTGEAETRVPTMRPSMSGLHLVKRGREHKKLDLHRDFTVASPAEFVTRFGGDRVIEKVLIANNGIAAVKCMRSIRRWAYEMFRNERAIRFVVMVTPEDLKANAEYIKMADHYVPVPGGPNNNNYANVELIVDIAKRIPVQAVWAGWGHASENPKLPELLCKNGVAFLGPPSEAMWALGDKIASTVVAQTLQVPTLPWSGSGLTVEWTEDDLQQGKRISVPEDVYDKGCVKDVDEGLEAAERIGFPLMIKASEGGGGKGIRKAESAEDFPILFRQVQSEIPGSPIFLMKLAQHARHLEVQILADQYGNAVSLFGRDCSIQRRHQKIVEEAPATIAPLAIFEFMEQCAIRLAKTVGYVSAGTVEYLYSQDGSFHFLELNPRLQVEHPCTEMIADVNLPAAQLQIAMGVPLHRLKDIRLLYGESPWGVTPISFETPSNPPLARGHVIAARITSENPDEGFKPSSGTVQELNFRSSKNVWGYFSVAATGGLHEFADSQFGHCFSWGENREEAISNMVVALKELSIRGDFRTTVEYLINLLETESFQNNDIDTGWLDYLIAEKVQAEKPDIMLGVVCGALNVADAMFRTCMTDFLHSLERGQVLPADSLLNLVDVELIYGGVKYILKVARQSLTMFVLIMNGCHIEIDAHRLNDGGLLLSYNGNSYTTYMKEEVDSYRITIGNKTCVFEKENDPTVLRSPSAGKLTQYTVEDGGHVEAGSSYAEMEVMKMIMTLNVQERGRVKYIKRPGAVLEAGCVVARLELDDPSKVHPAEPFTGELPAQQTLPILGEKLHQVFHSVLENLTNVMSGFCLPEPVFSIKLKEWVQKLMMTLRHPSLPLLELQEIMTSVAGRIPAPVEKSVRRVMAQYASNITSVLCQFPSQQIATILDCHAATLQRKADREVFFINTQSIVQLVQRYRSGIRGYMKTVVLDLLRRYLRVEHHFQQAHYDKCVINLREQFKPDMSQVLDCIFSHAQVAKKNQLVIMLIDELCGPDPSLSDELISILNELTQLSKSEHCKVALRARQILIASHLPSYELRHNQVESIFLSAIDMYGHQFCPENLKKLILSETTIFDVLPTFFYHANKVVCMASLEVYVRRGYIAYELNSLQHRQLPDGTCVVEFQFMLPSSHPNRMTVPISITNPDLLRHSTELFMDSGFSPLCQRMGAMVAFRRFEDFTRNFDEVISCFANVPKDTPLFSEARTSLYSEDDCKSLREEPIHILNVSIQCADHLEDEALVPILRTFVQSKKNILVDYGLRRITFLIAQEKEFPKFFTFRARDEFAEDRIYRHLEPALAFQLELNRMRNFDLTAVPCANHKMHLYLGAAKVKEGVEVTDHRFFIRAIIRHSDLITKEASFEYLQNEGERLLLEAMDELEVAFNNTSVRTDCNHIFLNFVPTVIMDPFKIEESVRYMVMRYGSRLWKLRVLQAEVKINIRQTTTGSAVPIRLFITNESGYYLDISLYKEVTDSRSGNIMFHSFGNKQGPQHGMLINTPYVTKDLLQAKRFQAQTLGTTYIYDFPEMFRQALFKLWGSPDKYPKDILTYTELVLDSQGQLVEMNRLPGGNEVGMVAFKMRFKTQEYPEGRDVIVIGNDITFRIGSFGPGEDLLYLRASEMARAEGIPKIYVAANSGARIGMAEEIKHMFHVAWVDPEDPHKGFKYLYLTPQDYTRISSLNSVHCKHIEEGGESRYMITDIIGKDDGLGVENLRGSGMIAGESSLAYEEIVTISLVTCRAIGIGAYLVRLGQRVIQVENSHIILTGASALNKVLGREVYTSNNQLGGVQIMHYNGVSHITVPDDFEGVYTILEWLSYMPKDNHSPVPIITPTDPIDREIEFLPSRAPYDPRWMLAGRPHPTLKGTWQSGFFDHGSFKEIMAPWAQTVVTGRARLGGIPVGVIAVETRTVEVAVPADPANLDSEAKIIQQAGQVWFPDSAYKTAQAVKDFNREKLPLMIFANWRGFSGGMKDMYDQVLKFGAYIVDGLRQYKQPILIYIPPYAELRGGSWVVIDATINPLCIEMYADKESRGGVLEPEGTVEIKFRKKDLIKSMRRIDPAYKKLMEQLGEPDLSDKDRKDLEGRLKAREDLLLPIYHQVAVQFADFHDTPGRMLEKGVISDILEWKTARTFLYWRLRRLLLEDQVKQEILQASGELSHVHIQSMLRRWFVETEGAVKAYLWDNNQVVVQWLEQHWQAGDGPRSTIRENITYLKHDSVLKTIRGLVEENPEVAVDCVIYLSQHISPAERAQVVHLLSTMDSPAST
assayProcedure: Inhibition of human recombinant ACC2
quantityKind: IC50 (nM)
Hi! Could you send only the number? It should be in nM, unit omitted.

>  <structure>
CC(C)n1ncc2c1C(=O)CC1(CCN(C(=O)c3ccc4[nH]c(C(N)=O)cc4c3)CC1)C2

>  <readoutUnit>
nM

>  <IC50>
2.9

$$$$
>  <structure>
COc1ccc2ncc(C(=O)N3CCC4(CC3)CC(=O)c3c(cnn3C(C)C)C4)cc2c1

>  <readoutUnit>
nM

>  <IC50>
2.1

$$$$
>  <structure>
CC(C)n1ncc2c1C(=O)CC1(CCN(C(=O)c3ccc4ccc(N)nc4c3)CC1)C2

>  <readoutUnit>
nM

>  <IC50>
10

$$$$

(Q) Any idea what IC50 came out for CNc1ccc2ccc(C(=O)N3CCC4(CC3)CC(=O)c3nn(C(C)(C)C)cc3C4)cc2n1 on Acetyl-CoA carboxylase 2 (Homo sapiens)?
(A) 1.3

* * *

tgt: Acetyl-CoA carboxylase 1 (Homo sapiens)
assayProcedure: Inhibition of human recombinant ACC1
Listing of recorded IC50 by entry.
Return type: number; implicit unit nM.

Example entries and their recorded answers appear below.
>  <structure>
COc1ccc2ncc(C(=O)N3CCC4(CC3)CC(=O)c3c(cnn3C(C)C)C4)cc2c1

>  <IC50 [nM]>
5

$$$$
>  <structure>
CC(C)n1ncc2c1C(=O)CC1(CCN(C(=O)c3ccc4[nH]c(C(N)=O)cc4c3)CC1)C2

>  <IC50 [nM]>
11

$$$$
>  <structure>
CNc1ccc2ccc(C(=O)N3CCC4(CC3)CC(=O)c3nn(C(C)(C)C)cc3C4)cc2n1

>  <IC50 [nM]>
2.2

$$$$

For the next question, use this molecule.
(Q) Which value of IC50 has been reported for CC(C)n1ncc2c1C(=O)CC1(CCN(C(=O)c3ccc4ccc(N)nc4c3)CC1)C2 in the records?
(A) 12
